Hello, the source for this data is patent US20050124638A1, in case you need it.

So I've got a bunch of molecules here, and I need their Kd values.
System: HCV IRES stem IIa RNA target
Test name: Mass spectrometry based binding assay
Condition set: Table 8; read-out: Kd to IIa target
One number for each entry, in µM.

Field: example entries. Status: answers known.
CN(C)CCCn1c(N)nc2ccc3c(c21)CC(CN(C)CCN(C)C)O3 (centres unmarked) [IBIS00560048] :: 11
CN(C)CCCn1c(N)nc2ccc3c(c21)CC(CN(C)C(=N)N)CO3 (centres unmarked) [IBIS00560101] :: 5.5
CN(CCCOc1ccc2nc3n(c2c1)CC(CN1CCCCC1)CN3)Cc1ccco1 (centres unmarked) [IBIS00554813] :: 5.1
CN(C)CC1CNc2nc3ccc(OCCCNC4CCN(Cc5ccccc5)CC4)cc3n2C1 (centres unmarked) [IBIS00528633] :: 4

Lab note: next molecule to report on.
## Input Recorded Kd for CN(C)CC1CNc2nc3ccc(OCCCN(C)Cc4nccs4)cc3n2C1 (centres unmarked) [IBIS00554888] , please?
## Output 8.8

###

System: HCV IRES stem IIa RNA target
Test name: Mass spectrometry based binding assay
Condition set: constrained vs unconstrained N1/N2 side chains; read-out: KD
Outcome measure: pKd
Numbers only, as −log10 of the molar value.

CN(C)CCCOc1ccc2nc(N)n(CCCN(C)C)c2c1 [drawing 125] :: 5.44

## Input Recorded pKd for CN(C)CCCOc1ccc2nc3n(c2c1)CC(CN(C)C)CN3 (centres unmarked) [drawing 124] with HCV IRES stem IIa RNA target, please?
## Output 6.17

###

So I've got a bunch of molecules here, and I need their CC50 at 48 h values.
Test name: MTT toxicity assay
Format: cell-based

CN(C)CC1CNc2nc3ccc(OCCCN[C@@H]4CCN(Cc5ccccc5)C4)cc3n2C1 (some centres unmarked) [IBIS00528635] :: 90 µM
CN(CCCOc1ccc2nc3n(c2c1)CC(CN1CCCCC1)CN3)Cc1ccco1 (centres unmarked) [IBIS00554813] :: > 100 µM
CN(C)CCCn1c(N)nc2ccc3c(c21)CC(CN(C)CCN(C)C)O3 (centres unmarked) [IBIS00560048] :: > 100 µM

Provide CC50 at 48 h for all items below, preserving their order.
1. CN(C)CCCn1c(N)nc2ccc3c(c21)CC(CN(C)Cc1cccn1C)CO3 (centres unmarked) [IBIS00560031]
2. CN(C)CC1CNc2nc3ccc(OCCCN(C)Cc4ccccn4)cc3n2C1 (centres unmarked) [IBIS00528637]

## Output
> 100 µM
> 100 µM

###

So I've got a bunch of molecules here, and I need their Vd values.
Test name: Single dose in vivo pharmacokinetic study
Condition set: rat, plasma; rats, single 3.0 mg/kg IV, mean; read-out: Vdss
Numbers only, in L/kg.

CN(C)CCCn1c(N)nc2ccc(OCCCN(C)Cc3ccco3)cc21 :: 82.8

Lab note: next molecule to report on.
## Input Recorded Vd for CN(C)CC1CNc2nc3ccc(OCCCN(C)Cc4ccccn4)cc3n2C1 (centres unmarked) [drawing 164] , please?
## Output 137

###

System: HCV IRES stem IIa RNA target
Test name: Mass spectrometry based binding assay
Condition set: Table 2; read-out: Est. KD
pKd: −log10 of the molar value.
So I've got a bunch of compounds here, and I need their pKd values.

Provide pKd for all items below, preserving their order.
1. COc1ccc2nc(N)n(CCCN(C)C)c2c1
2. CN(C)CCCn1c(N)nc2ccccc21 [drawing 67]
3. CN(C)CCCOc1ccc2nc(N)n(CCCN(C)C)c2c1 [drawing 69]

## Output
1. ~4.40
2. ~4.00
3. ~5.00

###

So I've got a bunch of compounds here, and I need their binding percentages of ligand to target values.
Tested on: HCV IRES stem IIa RNA target
Test name: Mass spectrometry based binding assay
Condition set: ligand 50 μM, IIa target 2.5 μM; Table 1

Nc1nc2ccccc2n1CCOc1ccccc1 :: 6%

Provide binding percentages of ligand to target for all items below, preserving their order.
1. CN(C)CCCn1c(N)nc2ccccc21 [drawing 62]
2. CN(C)CCn1c(N)nc2ccccc21

## Output
1. 56% binding
2. 11%

Provide binding percentages of ligand to target for all items below, preserving their order.
1. Nc1nc2ccccc2n1CCCN1CCCC1
2. CCN(CC)CCn1c(N)nc2ccccc21

## Output
15%
15%

###

So I've got a bunch of molecules here, and I need their Kd values.
System: HCV IRES stem IIa RNA target
Test name: Mass spectrometry based binding assay
Condition set: Table 8; read-out: Kd to IIa target
One number for each entry, in µM.

CN(C)CC1CNc2nc3ccc(OCCCN(C)Cc4cccs4)cc3n2C1 (centres unmarked) :: 5

Provide Kd for all items below, preserving their order.
1. CN(C)CC1CNc2nc3ccc(OCCCN(C)Cc4ccco4)cc3n2C1 (centres unmarked)
2. CN(C)CCCOc1ccc2nc(N)n(CCCN(C)C)c2c1
3. CN(C)CCCn1c(N)nc2ccc3c(c21)CC(CCN)CO3 (centres unmarked)
4. CNCC1COc2ccc3nc(N)n(CCCN(C)C)c3c2C1 (centres unmarked)

## Output
1.7
3.8
3.4
3.1

###

So I've got a bunch of compounds here, and I need their clearance values.
Test name: Single dose in vivo pharmacokinetic study
Condition set: rat, plasma; rats, single 3.0 mg/kg IV, mean
Numbers only, in mL/min/kg.

CN(C)CCCn1c(N)nc2ccc(OCCCN(C)Cc3ccco3)cc21 :: 34.5

## Input Recorded clearance for CN(C)CC1CNc2nc3ccc(OCCCN(C)Cc4ccccn4)cc3n2C1 (centres unmarked) [drawing 164] , please?
## Output 160

###

Test system: HCV IRES stem IIa RNA target
Test name: Mass spectrometry based binding assay
Condition set: Table 3
Outcome measure: MS Target Selectivity

CN(C)CCCOc1ccc2nc(N)n(CCCN(C)C)c2c1 [drawing 70] :: ˜15
CN(C)CCCn1c(N)nc2ccccc21 [drawing 71] :: ˜3
CN(C)CCCOc1ccc2ncn(CCCN(C)C)c2c1 :: 1
CN(C)CCCOc1ccc2nc(N)[nH]c2c1 :: ˜2

###

So I've got a bunch of molecules here, and I need their Kd values.
System: HCV IRES stem IIa RNA target
Test name: Mass spectrometry based binding assay
Condition set: Table 8; read-out: Kd to IIa target
Numbers only, in µM.

Field: example entries. Status: answers known.
CN(C)CC1CNc2nc3ccc(OCCCN(C)Cc4ncc[nH]4)cc3n2C1 (stereo not drawn) :: 3.1
CN(CCCOc1ccc2nc3n(c2c1)CC(CN1CCCCC1)CN3)Cc1ccccn1 (stereo not drawn) :: 4.3
CN(C)CCCn1c(N)nc2ccc3c(c21)CC(CN(C)Cc1cccn1C)CO3 (stereo not drawn) :: 18
CN(C)CCCOc1ccc2nc3n(c2c1)CC(CN1CCCCC1)CN3 (stereo not drawn) :: 3.4
CN(C)CCCn1c(N)nc2ccc3c(c21)CC(CN(C)C)CO3 (stereo not drawn) :: 2.2

Provide Kd for all items below, preserving their order.
1. CN(C)CC1CNc2nc3ccc(OCCCN[C@@H]4CCN(Cc5ccccc5)C4)cc3n2C1 (stereo partly drawn)
2. CN(C)CCCOc1ccc2nc3n(c2c1)CC(CN(C)C)CN3 (stereo not drawn)
3. CN(C)CC1CNc2nc3ccc(OCCCN(C)Cc4cccc(Br)n4)cc3n2C1 (stereo not drawn)
4. CN(C)CC1CNc2nc3ccc(OCCCN4CCC(N5CCCC5)CC4)cc3n2C1 (stereo not drawn)
5. CN(C)CCCn1c(N)nc2ccc3c(c21)CC(CN(C)Cc1cccn1C)O3 (stereo not drawn)

## Output
1
4.5
110
1.7
10.4

Provide Kd for all items below, preserving their order.
1. CN(C)CC1CNc2nc3ccc(OCCCN(C)Cc4cccn4C)cc3n2C1 (stereo not drawn)
2. CN(C)CC1CNc2nc3ccc(OCCCN(C)Cc4ccccn4)cc3n2C1 (stereo not drawn)

## Output
[0.78, 0.56]

Provide Kd for all items below, preserving their order.
1. CN(C)CC1CNc2nc3ccc(OCCCN(C)Cc4ccc(CO)o4)cc3n2C1 (stereo not drawn)
2. CN(C)CCCn1c(N)nc2ccc3c(c21)CC(CN(C)Cc1ncc[nH]1)CO3 (stereo not drawn)
3. CN(C)CCCn1c(N)nc2ccc3c(c21)CC(CN(C)CCN(C)C)CO3 (stereo not drawn)
4. CN(C)CC1CNc2nc3ccc(OCCCN(C)Cc4ccc[nH]4)cc3n2C1 (stereo not drawn)
5. CN(C)CC1COc2ccc3nc4n(c3c2C1)CC(CN(C)C)CN4 (stereo not drawn)

## Output
[5.9, 19.6, 9.4, 1.2, 21.1]

## Input Recorded Kd for CN(C)CCCn1c(N)nc2ccc3c(c21)CC(CN)CO3 (stereo not drawn) with HCV IRES stem IIa RNA target, please?
## Output 17.2

###

System: HCV IRES stem IIa RNA target
Test name: Mass spectrometry based binding assay
Condition set: Table 3; read-out: Est. KD
Outcome measure: Kd

Field: example entries. Status: answers known.
CN(C)CCCOc1ccc2ncn(CCCN(C)C)c2c1 :: > 500 µM
CN(C)CCCOc1ccc2nc(N)[nH]c2c1 :: > 500 µM
CN(C)CCCn1c(N)nc2ccccc21 [drawing 71] :: ~100 µM

Lab note: next compound to report on.
## Input Recorded Kd for CN(C)CCCOc1ccc2nc(N)n(CCCN(C)C)c2c1 [drawing 70] , please?
## Output ~10 µM
